- Experimental system: T1, CRBN, Q96SW2;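 further: pooled lentiviral library of zinc finger degron-EGFP fusions in mCherry-positive Jurkat cells, FACS-sorted after compound exposure, with degron abundance counted by next-generation sequencing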
- T1 chain: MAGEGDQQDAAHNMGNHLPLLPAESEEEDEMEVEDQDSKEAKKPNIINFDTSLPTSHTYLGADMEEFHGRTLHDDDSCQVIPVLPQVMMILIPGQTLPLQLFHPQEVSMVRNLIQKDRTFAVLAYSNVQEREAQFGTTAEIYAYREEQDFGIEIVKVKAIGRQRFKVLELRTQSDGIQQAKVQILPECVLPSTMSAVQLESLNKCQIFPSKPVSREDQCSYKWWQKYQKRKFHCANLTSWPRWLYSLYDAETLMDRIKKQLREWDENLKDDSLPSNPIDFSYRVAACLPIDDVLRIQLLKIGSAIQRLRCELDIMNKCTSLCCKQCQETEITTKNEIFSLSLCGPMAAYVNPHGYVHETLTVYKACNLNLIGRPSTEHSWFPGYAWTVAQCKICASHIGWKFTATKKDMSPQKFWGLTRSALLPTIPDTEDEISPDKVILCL
- Procedure summary: log2 fold change of degron read counts, EGFP-low vs EGFP+ sorted cells (limma voom), compound-induced degradation; higher = more compound-induced degradation of the degron-EGFP fusion; degrons are variants of IKZF1/3 zinc finger 2; compound dose not given here
- Setup conditions: Jurkat; 18 h; compound: compound 22 (5-morpholino-thalidomide)
Over roughly 8,300 sequences, “log2 fold change of degron read counts, EGFP-low vs EGFP+ sorted cells (limma voom), compound-induced degradation” has its median near -1.1; the highest 2% begin near 3.2. The sample holds the highest values, similar sequences and a random draw of the others, so the mix is not that of the screen.
Would you kindly list log2 fold change of degron read counts for each of these sequences?

| Query sequence | log2 fold change of degron read counts |
| --- | --- |
| FICNICGAPFTQKGNLLRHIKL [46F_47I_49N_50I_52G_53A_54P_55F_67L_, Q9UKT9] | 3.43 |
| FGCEICGAAFTQKGNLLRHIKL [46F_47G_49E_50I_52G_53A_54A_55F_67L_, Q9UKT9] | 2.59 |
| FRCNICGAPFTQKGNLLRHIKL [46F_47R_49N_50I_52G_53A_54P_55F_67L_, Q9UKT9] | 3.49 |
| FVCNQCGAPFTQKGNLLRHIKL [46F_47V_49N_50Q_52G_53A_54P_55F_67L_, Q9UKT9] | 0.603 |
| FLCEICGAAFTQKGNLLRHIKL [46F_47L_49E_50I_52G_53A_54A_55F_67L_, Q9UKT9] | 0.295 |
| FACDVCGAQFTQKGNLLRHIKL [46F_47A_49D_50V_52G_53A_54Q_55F_67L_, Q9UKT9] | -0.392 |

Proceeding to the next sequence to report its log2 fold change of degron read counts.
Recorded log2 fold change of degron read counts of FECEICGAAFTQKGNLLRHIKL [46F_47E_49E_50I_52G_53A_54A_55F_67L_, Q9UKT9] , please.
-0.833
